# test summary: recombinant UMI read abundance after kanamycin selection (control-corrected) (log10(CPM+1)); higher = more efficient recombination; extreme values may be limits of the assay; sequences stand for … in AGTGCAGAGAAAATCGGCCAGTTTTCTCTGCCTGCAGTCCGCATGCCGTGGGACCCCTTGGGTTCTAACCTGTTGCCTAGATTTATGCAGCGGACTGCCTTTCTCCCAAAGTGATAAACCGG…AGGTTGGTTTCACT; site = the 11-nt donor;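 also: IS621 bridge recombinase in Escherichia coli cells against a fixed T5 target plasmid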
value type: recombinant UMI read abundance (log10)
Write the value as a bare number.

Answered cases to consult:
>  <seq text>
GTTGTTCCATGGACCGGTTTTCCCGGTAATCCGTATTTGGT (site GTTGCTCCTAC)

>  <recombinant UMI read abundance (log10)>
0.00968

$$$$
>  <seq text>
GGCCTTTCATGGACCGGTTTTCCCGGTAATCCGTATTTGAC (site TGCCTTTCTGT)

>  <recombinant UMI read abundance (log10)>
0

$$$$
>  <seq text>
TTCCACCCATGGACCGGTTTTCCCGGTAATCCGTATTTGAC (site TTCCACCCTGT)

>  <recombinant UMI read abundance (log10)>
0

$$$$
>  <seq text>
CGGGAAACATGGACCGGTTTTCCCGGTAATCCGTATTTGAT (site CGGGAACCTAT)

>  <recombinant UMI read abundance (log10)>
0.00381

$$$$
>  <seq text>
AGCTTCCCATGGACCGGTTTTCCCGGTAATCCGTATTTGTG (site AGCTTCCCTCA)

>  <recombinant UMI read abundance (log10)>
0.00566

$$$$
>  <seq text>
TACTTGCCATGGACCGGTTTTCCCGGTAATCCGTATTTGCT (site TACTTGGCTAG)

>  <recombinant UMI read abundance (log10)>
0.00743

$$$$
>  <seq text>
AGCGTAGCATGGACCGGTTTTCCCGGTAATCCGTATTTGTT (site AGCCTAGCTAA)

>  <recombinant UMI read abundance (log10)>
0.0274

$$$$
>  <seq text>
ACATTTACATGGACCGGTTTTCCCGGTAATCCGTATTTGTG (site ACATGTACTCA)

>  <recombinant UMI read abundance (log10)>
0.287

$$$$

Now for the sequence whose recombinant UMI read abundance (log10) we want.
Consider the sequence TGAGGAGCATGGACCGGTTTTCCCGGTAATCCGTATTTGGT (site TGAGGAGCTAC) and give its recorded recombinant UMI read abundance (log10).
1.12

This collection of values is drawn from the supplement of paper PMC11208160.
